Below: a set of entries, each annotated with reported IC50.
- TARGET_OR_SYSTEM: CthIspH–RPS1 (Acetivibrio thermocellus (Clostridium thermocellum), UniProt A3DDC0)
- Sequence (A3DDC0 entry or part of it): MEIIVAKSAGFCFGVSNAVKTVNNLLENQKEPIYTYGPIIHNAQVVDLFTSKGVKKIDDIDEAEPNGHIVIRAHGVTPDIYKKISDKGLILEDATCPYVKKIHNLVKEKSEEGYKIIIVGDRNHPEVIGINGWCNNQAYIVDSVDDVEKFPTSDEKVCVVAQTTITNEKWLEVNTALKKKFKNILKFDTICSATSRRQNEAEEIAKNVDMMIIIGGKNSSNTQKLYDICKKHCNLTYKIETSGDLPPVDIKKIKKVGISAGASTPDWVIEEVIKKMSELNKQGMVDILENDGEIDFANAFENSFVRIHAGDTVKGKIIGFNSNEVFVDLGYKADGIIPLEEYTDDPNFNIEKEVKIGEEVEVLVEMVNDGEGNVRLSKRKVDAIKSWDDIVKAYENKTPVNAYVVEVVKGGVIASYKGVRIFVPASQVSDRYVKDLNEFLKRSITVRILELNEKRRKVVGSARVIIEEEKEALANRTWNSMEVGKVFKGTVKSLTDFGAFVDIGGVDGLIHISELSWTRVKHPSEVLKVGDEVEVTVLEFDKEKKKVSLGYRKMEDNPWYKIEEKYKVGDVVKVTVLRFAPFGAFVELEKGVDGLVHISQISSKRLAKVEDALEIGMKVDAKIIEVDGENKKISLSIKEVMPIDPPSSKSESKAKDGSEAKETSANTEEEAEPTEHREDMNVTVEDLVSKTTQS
- ASSAY_REMARKS: CthIspH–RPS1 inhibition assay (methyl viologen method); note: 40 nM enzyme, 50 µM HMBPP, 40 µM dithionite
- Type: biochemical
- CONDITION_LABEL: read-out: IC50 against CthIspH–RPS1
Kindly format the answer as number then unit.

As a guide, the following entries are already answered.
O=P(O)(O)OP(=O)(O)OCCCc1cccnc1: 490 µM
O=P(O)(O)OP(=O)(O)OCC#CCO: 92 µM

Problem: Sample C#CCCOP(=O)(O)OP(=O)(O)O — what was its IC50?
Solution: 3.3 µM

* * *

Overview of reported pIC50 across a group of compounds:
- TARGET_OR_SYSTEM: CthIspH–RPS1 (Acetivibrio thermocellus (Clostridium thermocellum))
- ASSAY_REMARKS: CthIspH–RPS1 inhibition assay (methyl viologen method)
- Type: biochemical
- CONDITION_LABEL: read-out: IC50 against CthIspH–RPS1
# log scale: pIC50 equals minus log10 of the concentration in mol/L

In the examples that follow, each entry is paired with its recorded pIC50.
C#CCCCOP(=O)(O)OP(=O)(O)O: 4.33
O=P(O)(O)OP(=O)(O)OCCc1cccnc1: 3.62
C#CCOP(=O)(O)OP(=O)(O)O: 5.06
O=P(O)(O)OP(=O)(O)OCc1cccnc1: 3.82
O=P(O)(O)OP(=O)(O)OCc1ccncc1: 3.92

Problem: GET /values?readout=pIC50&item= CC#CCOP(=O)(O)OP(=O)(O)O
Solution: 3.12

Hello, the source for this data is paper PMC4746011, in case you need it.
